Data origin: patent US20260008817A1

# assay.system: Recombinant Human FGFR1 alpha (IIIc) Fc Chimera Protein (Homo sapiens)
# Construct: purchased R&D systems 658-FR-050
# protocol: ELISA binding affinity of enzymatically synthesized peptide to FGFR
# test.settings: ELISA luminescence signal at 10 nmol/L peptide, SEQ ID NO: 239 standardized to 1; enzyme synthesis product
Positions of bridges follow the written chain, without caps; N, C: chain ends. No end group written: not given here. COCH2 = acetyl group that carries the bridge
measure: Evaluation result of binding affinity to FGFR

| substance | assay.system | observed |
| --- | --- | --- |
| 293 (ICVYTFDAHAHSLDAALTK(COCH2)V; thioether 2-19 (inferred)) [compound 293] | Recombinant Human FGFR1 alpha (IIIc) Fc Chimera Protein (Homo sapiens) | A (0.7 or more) |
| 54 (HCVYTFDAHAHSLHAALTK(COCH2)I; thioether 2-19 (inferred)) [compound 54] | Recombinant Human FGFR1 alpha (IIIc) Fc Chimera Protein (Homo sapiens) | A (0.7 or more) |

###

# assay.system: Recombinant Human FGFR1 alpha (IIIc) Fc Chimera Protein (Homo sapiens)
# Construct: purchased R&D systems 658-FR-050
# protocol: ELISA binding affinity of enzymatically synthesized peptide to FGFR
# test.settings: ELISA luminescence signal at 10 nmol/L peptide, SEQ ID NO: 239 standardized to 1; enzyme synthesis product
Positions of bridges follow the written chain, without caps; N, C: chain ends. No end group written: not given here. COCH2 = acetyl group that carries the bridge
measure: Evaluation result of binding affinity to FGFR

| substance | observed |
| --- | --- |
| 53 (RCVYTFDAHAHSLHAALTK(COCH2)I; thioether 2-19 (inferred)) [compound 53] | A (0.7 or more) |
| 319 (FCVYTFDAHAHSLDAALNK(COCH2)Q; thioether 2-19 (inferred)) [compound 319] | A (0.7 or more) |
| 131 (ICVYTFDAHAASLHAALTKI; Description of Artificial Sequence: Cyclic peptide) [compound 131] | A (0.7 or more) |

###

# assay.system: Recombinant Human FGFR1 alpha (IIIc) Fc Chimera Protein (Homo sapiens)
# Construct: purchased R&D systems 658-FR-050
# protocol: ELISA binding affinity of enzymatically synthesized peptide to FGFR
# test.settings: ELISA luminescence signal at 10 nmol/L peptide, SEQ ID NO: 239 standardized to 1; enzyme synthesis product
Positions of bridges follow the written chain, without caps; N, C: chain ends. No end group written: not given here. COCH2 = acetyl group that carries the bridge
measure: Evaluation result of binding affinity to FGFR

| substance | observed |
| --- | --- |
| 278 (ICPLYGDQGQAWQYGWK(COCH2)L; thioether 2-17 (inferred)) [compound 278] | A (0.7 or more) |
| 323 (ICVYTFDANAHSLDAALTK(COCH2)I; thioether 2-19 (inferred)) [compound 323] | A (0.7 or more) |
| 162 (ICVYTFDAHAHSAHAALTK(COCH2)I; thioether 2-19 (inferred)) [compound 162] | A (0.7 or more) |

###

# assay.system: Recombinant Human FGFR1 alpha (IIIc) Fc Chimera Protein (Homo sapiens, UniProt P11362)
# Construct: purchased R&D systems 658-FR-050
# Sequence (P11362 with tags, fused parts or gaps limits assumed): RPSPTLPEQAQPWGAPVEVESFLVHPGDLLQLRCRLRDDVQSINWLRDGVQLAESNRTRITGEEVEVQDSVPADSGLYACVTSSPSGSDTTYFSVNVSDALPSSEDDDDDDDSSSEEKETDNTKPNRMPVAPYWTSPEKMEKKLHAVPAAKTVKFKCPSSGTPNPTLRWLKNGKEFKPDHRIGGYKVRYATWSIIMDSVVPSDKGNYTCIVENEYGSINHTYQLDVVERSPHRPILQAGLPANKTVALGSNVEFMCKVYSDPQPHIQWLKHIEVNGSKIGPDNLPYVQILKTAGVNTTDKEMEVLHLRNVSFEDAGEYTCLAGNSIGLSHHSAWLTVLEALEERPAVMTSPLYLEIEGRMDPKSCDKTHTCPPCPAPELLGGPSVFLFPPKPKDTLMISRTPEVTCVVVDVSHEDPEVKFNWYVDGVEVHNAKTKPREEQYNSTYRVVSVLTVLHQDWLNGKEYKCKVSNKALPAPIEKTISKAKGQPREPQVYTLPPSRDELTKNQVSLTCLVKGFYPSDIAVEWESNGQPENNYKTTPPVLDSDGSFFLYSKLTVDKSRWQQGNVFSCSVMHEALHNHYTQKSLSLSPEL
# protocol: ELISA binding affinity of enzymatically synthesized peptide to FGFR
# test.settings: ELISA luminescence signal at 10 nmol/L peptide, SEQ ID NO: 239 standardized to 1; enzyme synthesis product
# Description: The binding affinity of the peptide to FGFR was evaluated using an ELISA method. The peptide used for the evaluation was enzymatically synthesized by the following method. […] The binding affinity of the enzymatically synthesized peptide to FGFR was measured by evaluating the amount of the peptide bound to FGFR by ELISA. […]
Positions of bridges follow the written chain, without caps; N, C: chain ends. No end group written: not given here. COCH2 = acetyl group that carries the bridge
measure: Evaluation result of binding affinity to FGFR

| substance | observed |
| --- | --- |
| 311 (ICVYTFDAHAQSLHDALTK(COCH2)I; thioether 2-19 (inferred)) [compound 311] | A (0.7 or more) |
| 157 (ICVYTFDAHAHTLHAALTK(COCH2)I; thioether 2-19 (inferred)) [compound 157] | A (0.7 or more) |
